EXPERIMENTAL SYSTEM: CYP3A4 (Homo sapiens)
Sequence (P08684 whole entry): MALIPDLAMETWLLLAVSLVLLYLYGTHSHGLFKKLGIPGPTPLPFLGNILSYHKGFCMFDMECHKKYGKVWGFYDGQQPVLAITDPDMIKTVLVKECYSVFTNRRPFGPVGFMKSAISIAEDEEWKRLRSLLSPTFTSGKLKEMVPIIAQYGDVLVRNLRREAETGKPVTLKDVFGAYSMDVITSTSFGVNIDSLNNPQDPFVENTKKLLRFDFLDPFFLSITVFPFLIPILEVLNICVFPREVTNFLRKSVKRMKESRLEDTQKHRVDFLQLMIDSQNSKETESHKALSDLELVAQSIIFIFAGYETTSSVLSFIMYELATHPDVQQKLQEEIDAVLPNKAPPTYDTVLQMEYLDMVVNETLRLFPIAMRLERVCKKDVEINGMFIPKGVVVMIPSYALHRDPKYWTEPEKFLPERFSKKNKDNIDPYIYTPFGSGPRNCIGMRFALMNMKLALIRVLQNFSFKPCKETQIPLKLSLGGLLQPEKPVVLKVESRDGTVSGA
ASSAY: Spectral binding titrations (equilibrium ligand binding, type II spectral change)
Set-up: Codon-optimized full-length and Δ3–22 human CYP3A4 were produced as reported previously [45] and used for assays and crystallization, respectively; made in house
DETAILS: ferrous inhibitor-bound CYP3A4, Soret band
MEASURED METRIC: λmax (nm) ferrous

MOLECULE	UNIT OF MEASUREMENT	λmax (nm) ferrous
CC(C)(C)OC(=O)N[C@H](CS[C@@H](Cc1ccccc1)C(=O)NCCCc1cccnc1)Cc1cccc2ccccc12 [Compound 3h]	nm	444
CC(C)(C)OC(=O)NC(CSC(Cc1ccccc1)C(=O)NCCCc1cccnc1)Cc1ccccc1 (stereo not shown) [Compound 3b]	nm	443
CC(C)(C)OC(=O)NC(CSC(Cc1ccccc1)C(=O)NCCCc1cccnc1)Cc1cccc2ccccc12 (stereo not shown) [Compound 3g]	nm	444
CC(C)(C)OC(=O)NC(CSC(Cc1ccccc1)C(=O)NCCOCc1cccnc1)Cc1ccccc1 (stereo not shown) [Compound 6]	nm	443
CC(C)(C)OC(=O)N[C@@H](CS[C@H](Cc1ccccc1)C(=O)NCCCc1cccnc1)Cc1cccc2ccccc12 [Compound 3i]	nm	444
CC(C)(C)OC(=O)N[C@H](CS[C@H](Cc1ccccc1)C(=O)NCCCc1cccnc1)Cc1c[nH]c2ccccc12 [Compound 3e]	nm	444
CC(C)(C)OC(=O)NC(CSCC(Nc1ccccc1)C(=O)NCCCc1cccnc1)Cc1ccccc1 (stereo not shown) [Compound 8]	nm	444
